- experiment.notes: MTT assay, cytotoxicity in neuroblastoma cells
- Format: cell-based
- study.conditions: neuroblastoma cells (ATCC), 4 day incubation, per cent of negative control, Tamoxifen 100 μM, AD7C-NTP 100-1000 ng/ml, read-out: Percent Of Viable Cells
quantity: viability at 4 days, 100 µM (%)

compound: CC/C(=C(\c1ccccc1)c1ccc(OCCN(C)C)cc1)c1ccccc1 [PC (Tamoxifen), tamoxifen]
display.unit: %
assay.value: 25

* * *

- experiment.notes: MTT assay, cytotoxicity in glioma cells
- Assay type: cell-based
- study.conditions: glioma cells (ATCC), 4 days, per cent of negative control, Tamoxifen 100 μM, AD7C-NTP 100-1000 ng/ml, read-out: Percent Of Viable Cells

structure.string: CC/C(=C(\c1ccccc1)c1ccc(OCCN(C)C)cc1)c1ccccc1
viability at 4 days, 100 µM [%]: 19
